# Test system: NCI/ADR-RES
# test-description: Growth inhibition of human NCI/ADR-RES cells after 48 hrs by SRB assay
# Type: functional
GI50 strictly less than 300 nM = TRUE. Otherwise FALSE.

Take a look at these entries with their results.
| compound | group |
| --- | --- |
| COc1ccc(C2CC(c3cc(OC)c(OC)c(OC)c3)=NN2)cc1 (stereo not given) | FALSE |
| COc1cc(C2CC(c3ccc(N(C)C)cc3)=NN2C(C)=O)cc(OC)c1OC (stereo not given) | FALSE |
| COc1cc(C2=NN(C(C)=O)C(c3cc(OC)c(OC)c(OC)c3)C2)ccc1O (stereo not given) | TRUE |

Problem: # TODO verify GI50 < 300 nM strictly for this compound: CCN(CC)c1ccc(C2=NN(C(C)=O)C(c3cc(OC)c(OC)c(OC)c3)C2)cc1 (stereo not given)
Result: TRUE

Problem: # TODO verify GI50 < 300 nM strictly for this compound: COc1cc(C2CC(c3cccc(Br)c3)=NN2C(C)=O)cc(OC)c1OC (stereo not given)
Result: FALSE
